# System: Mycobacterium tuberculosis
# Protocol Notes: Antimycobacterial activity against Mycobacterium tuberculosis RCMB 010126 clinical isolate after 7 days by MABA
# Format: functional
# Experimental Setup: Mycobacterium tuberculosis, RCMB 010126, 168 h
Observable: MIC (µg/mL)
Numbers only, in µg/mL.

Some solved cases for reference:
Structure Smiles: COc1ccc(OC)c(/C=N/NC(=O)c2ccc(-c3cccc(Cl)c3)nc2C)c1
MIC, µg/mL: 0.39
//
Structure Smiles: Cc1nc(-c2cccc(Cl)c2)ccc1C(=O)N/N=C/c1ccc(Cl)cc1
MIC, µg/mL: 6.24
//
Structure Smiles: O=C(N/N=C/c1ccc(Cl)cc1)c1c[nH]c2ccc(Cl)cc2c1=O
MIC, µg/mL: 99.8

Briefly, MIC measured for `Cc1nc(-c2ccc(Cl)cc2)ccc1C(=O)N/N=C/c1ccc(Cl)cc1Cl` : 12.5

---

# Test system: Aspergillus fumigatus
# Protocol Notes: Antimicrobial activity against Aspergillus fumigatus RCMB 02568 after 48 hrs by serial dilution method
# Format: functional
# Experimental Setup: RCMB 02568, 48 h
Observable: MIC (µg/mL)
Answers are plain numbers, in µg/mL.

Some solved cases for reference:
Structure Smiles: COc1ccc(/C=N/NC(=O)c2ccc(-c3cccc(Cl)c3)nc2C)cc1
Measured On: Aspergillus fumigatus
Observed Result: 1.95
//
Structure Smiles: Cc1nc(-c2ccc(Cl)cc2)ccc1C(=O)N/N=C/c1ccc(Cl)cc1Cl
Measured On: Aspergillus fumigatus
Observed Result: 3.9
//
Structure Smiles: Cc1nc(-c2cccc(Cl)c2)ccc1C(=O)N/N=C/c1ccc(Cl)cc1
Measured On: Aspergillus fumigatus
Observed Result: 1.95
//
Structure Smiles: COc1cccc(/C=N/NC(=O)c2ccc(-c3ccc(Cl)cc3)nc2C)c1O
Measured On: Aspergillus fumigatus
Observed Result: 1.95

Briefly, MIC measured for `COc1cc(/C=N/NC(=O)c2c[nH]c3ccc(Cl)cc3c2=O)cc(OC)c1OC` : 7.81

---

Would you mind telling me the reported MIC of each entry?
# Tested on: Escherichia coli
# Protocol Notes: Antimicrobial activity against Escherichia coli RCMB 010052 after 24 hrs by serial dilution method
# Type: functional
# Experimental Setup: RCMB 010052, 24 h
Numbers only, in µg/mL.

Some solved cases for reference:
Structure Smiles: COc1cccc(/C=N/NC(=O)c2ccc(-c3ccc(Cl)cc3)nc2C)c1O
Observable: MIC
Measurement Unit: µg/mL
Observed Result: 1.95

Structure Smiles: O=C(N/N=C/c1ccc(Cl)cc1Cl)c1c[nH]c2ccc(Cl)cc2c1=O
Observable: MIC
Measurement Unit: µg/mL
Observed Result: 1.95

Structure Smiles: O=C(N/N=C/c1ccc(Cl)cc1)c1c[nH]c2ccc(Cl)cc2c1=O
Observable: MIC
Measurement Unit: µg/mL
Observed Result: 1.95

Structure Smiles: COc1ccc(/C=N/NC(=O)c2ccc(-c3ccc(Cl)cc3)nc2C)cc1
Observable: MIC
Measurement Unit: µg/mL
Observed Result: 1.95

Okay, next one:
Briefly, MIC measured for `Cc1ccc(/C=N/NC(=O)c2c[nH]c3cc(Cl)ccc3c2=O)cc1` : 62.5

---

# Tested on: Pseudomonas aeruginosa
# Experimental Setup: RCMB 010043, 100 ug/ml
# Description: Antimicrobial activity against Pseudomonas aeruginosa RCMB 010043 assessed as diameter of zone inhibition at 100 ug/ml after 24 hrs by agar well diffusion assay
Active and inactive are the calls of the source. No cut-off for these calls is given here.
Observable: DIZ

Some solved cases for reference:
Structure Smiles: COc1cc(/C=N/NC(=O)c2c[nH]c3cc(Cl)ccc3c2=O)cc(OC)c1OC
Measured On: Pseudomonas aeruginosa
Observed Result: inactive

Structure Smiles: COc1cc(/C=N/NC(=O)c2ccc(-c3cccc(Cl)c3)nc2C)cc(OC)c1OC
Measured On: Pseudomonas aeruginosa
Observed Result: inactive

Structure Smiles: COc1ccc(/C=N/NC(=O)c2c[nH]c3ccc(Cl)cc3c2=O)cc1OC
Measured On: Pseudomonas aeruginosa
Observed Result: inactive

Structure Smiles: O=C(N/N=C/c1ccc(Cl)cc1)c1c[nH]c2ccc(Cl)cc2c1=O
Measured On: Pseudomonas aeruginosa
Observed Result: inactive

Structure Smiles: Cc1nc(-c2ccc(Cl)cc2)ccc1C(=O)N/N=C/c1ccc(F)cc1
Measured On: Pseudomonas aeruginosa
Observed Result: inactive

Provide each entry's DIZ from the list below.
1. Cc1nc(-c2cccc(Cl)c2)ccc1C(=O)N/N=C/c1ccc(F)cc1
2. Cc1nc(-c2ccc(Cl)cc2)ccc1C(=O)N/N=C/c1ccc(Cl)cc1
3. Cc1ccc(/C=N/NC(=O)c2ccc(-c3cccc(Cl)c3)nc2C)cc1
4. COc1ccc(/C=N/NC(=O)c2ccc(-c3ccc(Cl)cc3)nc2C)cc1OC
5. Cc1ccc(/C=N/NC(=O)c2c[nH]c3ccc(Cl)cc3c2=O)cc1
6. O=C(N/N=C/c1ccc(Cl)cc1)c1c[nH]c2cc(Cl)ccc2c1=O

A:
1: inactive; 2: inactive; 3: inactive; 4: inactive; 5: inactive; 6: inactive

Provide each entry's DIZ from the list below.
1. Cc1ccc(/C=N/NC(=O)c2ccc(-c3ccc(Cl)cc3)nc2C)cc1
2. COc1cc(/C=N/NC(=O)c2ccc(-c3ccc(Cl)cc3)nc2C)cc(OC)c1OC
3. COc1cccc(/C=N/NC(=O)c2ccc(-c3ccc(Cl)cc3)nc2C)c1O
4. O=C(N/N=C/c1ccc(F)cc1)c1c[nH]c2ccc(Cl)cc2c1=O
5. COc1ccc(OC)c(/C=N/NC(=O)c2ccc(-c3ccc(Cl)cc3)nc2C)c1
6. O=C(N/N=C/c1ccc(F)cc1)c1c[nH]c2cc(Cl)ccc2c1=O
7. Cc1nc(-c2cccc(Cl)c2)ccc1C(=O)N/N=C/c1ccc(Cl)cc1
8. Cc1nc(-c2ccc(Cl)cc2)ccc1C(=O)N/N=C/c1ccc(O)cc1

A:
1: inactive; 2: inactive; 3: inactive; 4: inactive; 5: inactive; 6: inactive; 7: inactive; 8: inactive

Briefly, DIZ measured for `COc1ccc(/C=N/NC(=O)c2ccc(-c3ccc(Cl)cc3)nc2C)cc1` : inactive

---

# Tested on: Mycobacterium tuberculosis
# Protocol Notes: Antimycobacterial activity against Mycobacterium tuberculosis RCMB 010126 clinical isolate after 7 days by MABA
# Assay type: functional
# Experimental Setup: Mycobacterium tuberculosis, RCMB 010126, 168 h
Please note: MIC exactly at 6 µg/mL is no. Only values below 6 µg/mL get yes.

Structure Smiles: Cc1nc(-c2cccc(Cl)c2)ccc1C(=O)N/N=C/c1ccc(Cl)cc1Cl
Class Label: no

Q: Quick check: does `O=C(N/N=C/c1ccc(F)cc1)c1c[nH]c2cc(Cl)ccc2c1=O` have MIC under 6 µg/mL?
A: no

Q: Quick check: does `COc1ccc(/C=N/NC(=O)c2ccc(-c3cccc(Cl)c3)nc2C)cc1OC` have MIC under 6 µg/mL?
A: yes

Q: Quick check: does `Cc1nc(-c2cccc(Cl)c2)ccc1C(=O)N/N=C/c1ccc(F)cc1` have MIC under 6 µg/mL?
A: yes

---

# Tested on: Staphylococcus aureus
# Protocol Notes: Antimicrobial activity against Staphylococcus aureus RCMB 010028 assessed as diameter of zone inhibition at 100 ug/ml after 24 hrs by agar well diffusion assay
# Format: functional
# Experimental Setup: RCMB 010028, 24 h, read-out: DIZ
Observable: zone of inhibition at 100 µg/mL (mm)
One number for each entry, in mm.

Compound: Cc1ccc(/C=N/NC(=O)c2c[nH]c3cc(Cl)ccc3c2=O)cc1
zone of inhibition at 100 µg/mL (mm): 14.4

Compound: O=C(N/N=C/c1ccc(Cl)cc1Cl)c1c[nH]c2ccc(Cl)cc2c1=O
zone of inhibition at 100 µg/mL (mm): 15.7

Compound: Cc1ccc(/C=N/NC(=O)c2ccc(-c3cccc(Cl)c3)nc2C)cc1
zone of inhibition at 100 µg/mL (mm): 12.6

Compound: COc1cccc(/C=N/NC(=O)c2ccc(-c3ccc(Cl)cc3)nc2C)c1O
zone of inhibition at 100 µg/mL (mm): 20.5

Compound: O=C(N/N=C/c1ccc(Cl)cc1Cl)c1c[nH]c2cc(Cl)ccc2c1=O
zone of inhibition at 100 µg/mL (mm): 20.6

Compound: O=C(N/N=C/c1ccc(F)cc1)c1c[nH]c2ccc(Cl)cc2c1=O
zone of inhibition at 100 µg/mL (mm): 10.6

Provide each entry's zone of inhibition at 100 µg/mL from the list below.
1. COc1ccc(OC)c(/C=N/NC(=O)c2ccc(-c3cccc(Cl)c3)nc2C)c1
2. COc1cc(/C=N/NC(=O)c2ccc(-c3cccc(Cl)c3)nc2C)cc(OC)c1OC
3. CC1(C)S[C@@H]2[C@H](NC(=O)[C@H](N)c3ccccc3)C(=O)N2[C@H]1C(=O)O [AMPICILLIN]

A:
1: 21.3; 2: 21.3; 3: 27.4

Provide each entry's zone of inhibition at 100 µg/mL from the list below.
1. O=C(N/N=C/c1ccc(F)cc1)c1c[nH]c2cc(Cl)ccc2c1=O
2. O=C(N/N=C/c1ccc(Cl)cc1)c1c[nH]c2cc(Cl)ccc2c1=O
3. Cc1nc(-c2cccc(Cl)c2)ccc1C(=O)N/N=C/c1ccc(Cl)cc1
4. COc1cc(/C=N/NC(=O)c2c[nH]c3ccc(Cl)cc3c2=O)cc(OC)c1OC
5. COc1ccc(/C=N/NC(=O)c2ccc(-c3cccc(Cl)c3)nc2C)cc1

A:
[16.2, 16.2, 19.6, 17.3, 19.6]

Provide each entry's zone of inhibition at 100 µg/mL from the list below.
1. COc1ccc(/C=N/NC(=O)c2c[nH]c3cc(Cl)ccc3c2=O)cc1OC
2. O=C(N/N=C/c1ccc(Cl)cc1)c1c[nH]c2ccc(Cl)cc2c1=O
3. Cc1nc(-c2ccc(Cl)cc2)ccc1C(=O)N/N=C/c1ccc(Cl)cc1Cl

A:
20.6
15.3
19.3
